Target Of Assay: Human 5-HT2A (Homo sapiens)
Test Details: [125I]DOI radioligand binding, human 5-HT2A
Measurement Context: read-out: Ki Human 5-HT2A; [125I]DOI; AVG
pKi: −log10 of the molar value.

| Molecule | pKi |
| --- | --- |
| CCCN(CCC)C1CCc2cccc(-c3ccno3)c2C1 (centres unmarked) | 6.45 |
| CCCN(CCC)C1CCc2cccc(-c3ccno3)c2C1 (single isomer, unassigned) | 5.21 |

###

Target Of Assay: rat 5-HT2B receptor (Rattus norvegicus, UniProt P30994);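 note: displacement of [3H]5-HT from membranes of suspension cells carrying cloned rat 5-HT2B receptor, incubated 15 min at 37 °C or 2 h at 0 °C, filter-bound radioactivity counted by scintillation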
Sequence (P30994 whole entry): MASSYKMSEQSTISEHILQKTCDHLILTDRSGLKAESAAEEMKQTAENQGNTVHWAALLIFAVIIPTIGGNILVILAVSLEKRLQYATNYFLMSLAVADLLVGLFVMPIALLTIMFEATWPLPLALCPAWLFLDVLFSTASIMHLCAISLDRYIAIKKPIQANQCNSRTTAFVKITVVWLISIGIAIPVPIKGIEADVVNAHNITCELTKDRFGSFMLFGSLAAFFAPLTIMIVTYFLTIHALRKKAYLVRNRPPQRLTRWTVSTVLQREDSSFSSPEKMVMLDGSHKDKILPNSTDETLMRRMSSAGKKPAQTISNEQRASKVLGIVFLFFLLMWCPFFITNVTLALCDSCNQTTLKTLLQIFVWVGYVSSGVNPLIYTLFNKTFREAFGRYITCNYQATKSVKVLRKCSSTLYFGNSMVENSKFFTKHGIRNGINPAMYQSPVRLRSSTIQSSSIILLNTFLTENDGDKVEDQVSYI
Test Details: biochemical
Assay type: binding
Measurement Context: [3H]Serotonin; 5-HT2B cells; AVG; read-out: Ki Rat 5-HT2B
Criterion: Ki strictly under 20 nM. Met: Yes. Not met: No.

| Molecule | Assigned Class |
| --- | --- |
| COc1ccc(CC2NCCc3c2[nH]c2ccc(C4CCCCC4)cc32)cc1OC (centres unmarked) [drawing 149] | No |
| CC(C)c1ccc2[nH]c3c(c2c1)CCNC3C(C)c1cccc2ccccc12 (centres unmarked) | Yes |
| Cc1ccc2[nH]cc(CCN)c2c1 | No |
| Fc1ccc2[nH]c3c(c2c1)CCNC3 | No |
| NCCc1c[nH]c2ccc(Cl)cc12 | Yes |
| COc1ccc(CC2NCCc3c2[nH]c2ccc(C(C)(C)C)cc32)cc1OC (centres unmarked) [drawing 148] | No |
| c1ccc2c(N3CCNCC3)cccc2c1 | Yes |
| Cc1ccc2c3c([nH]c2c1Cl)CNCC3 [drawing 177] | Yes |
| COc1ccc(CC2NCCc3c2[nH]c2ccc(-c4ccccc4)cc32)cc1OC (centres unmarked) | No |
| Cc1ccc2c3c([nH]c2c1I)CNCC3 | Yes |
| CCCN(CCC)C1CCc2cccc(O)c2C1 (centres unmarked) | No |

###

Target Of Assay: Human 5-HT2A (Homo sapiens, UniProt P28223)
Sequence (P28223 whole entry): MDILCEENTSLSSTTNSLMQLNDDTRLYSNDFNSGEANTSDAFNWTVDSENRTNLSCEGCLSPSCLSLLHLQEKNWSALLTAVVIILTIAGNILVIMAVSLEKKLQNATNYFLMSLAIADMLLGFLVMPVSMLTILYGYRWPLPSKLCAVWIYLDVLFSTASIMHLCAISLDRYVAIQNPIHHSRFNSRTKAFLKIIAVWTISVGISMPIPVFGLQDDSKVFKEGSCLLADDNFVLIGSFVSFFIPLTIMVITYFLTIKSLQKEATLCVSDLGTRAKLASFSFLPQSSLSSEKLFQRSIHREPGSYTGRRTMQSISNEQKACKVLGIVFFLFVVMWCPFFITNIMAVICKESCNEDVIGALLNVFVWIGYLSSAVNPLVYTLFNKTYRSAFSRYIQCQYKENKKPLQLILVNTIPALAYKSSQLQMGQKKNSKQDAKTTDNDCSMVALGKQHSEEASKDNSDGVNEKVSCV
Test Details: [125I]DOI radioligand binding, human 5-HT2A
Structures can show the parent of a compound that is named as a salt.
Parameter Measured: log10(Ki) (log10 of the value in nM)

| Compound | Parameter Measured | Observed Value |
| --- | --- | --- |
| COc1ccc(CC2NCCc3c2[nH]c2ccc(C)cc32)cc1O (centres unmarked) | log10(Ki) | 1.74 |
| COc1cc2c(cc1OC)CC1(CC2)N[C@@H]2CCCC[C@H]2c2c1[nH]c1ccc(C)cc21 (some centres unmarked) [Example 107, hydrochloride] | log10(Ki) | 2.56 |
| COc1ccc(CC2NCCc3c2[nH]c2ccc(C)cc32)cc1OC (centres unmarked) [drawing 144] | log10(Ki) | 1.45 |
| COc1ccc(C(C)C2NCCc3c2[nH]c2ccc(C(C)C)cc32)cc1OC (centres unmarked) | log10(Ki) | 2.30 |
| Brc1cccc2c3c([nH]c12)CNCC3 | log10(Ki) | 1.36 |
| Cc1cc(Br)c2[nH]c3c(c2c1)CCNC3 [drawing 168] | log10(Ki) | 1.62 |
| COc1ccc(CC2NCCc3c2[nH]c2c(Cl)c(C)ccc32)cc1OC (centres unmarked) | log10(Ki) | -0.03 |
| Cc1ccc2[nH]c3c(c2c1)CCNC3Cc1cccc2ccccc12 (centres unmarked) | log10(Ki) | 0.67 |
| CCCN(CCC)[C@@H]1CCc2cccc(-c3ccon3)c2C1 | log10(Ki) | 2.10 |
| CCCN(CCC)[C@H]1CCc2cccc(-c3ccon3)c2C1 | log10(Ki) | 3.76 |
| COc1ccc(CC2NCCc3c2[nH]c2ccc(C)cc32)c(Br)c1OC (centres unmarked) | log10(Ki) | 1.09 |
| Cc1ccc2c3c([nH]c2c1Br)CNCC3 | log10(Ki) | 1.34 |
| Cc1ccc2[nH]c3c(c2c1)[C@@H]1CCCC[C@H]1NC3 (relative stereo) [Example 95, hydrochloride] | log10(Ki) | 3.54 |
| Cc1ccc2[nH]c3c(c2c1)[C@@H]1CCCC[C@H]1NC3Cc1cccc2ccccc12 (some centres unmarked) [Example 105, hydrochloride] | log10(Ki) | 1.94 |
| COc1ccc(C(C)C2NCCc3c2[nH]c2ccc(C)cc32)cc1OC (single isomer, unassigned) | log10(Ki) | 2.57 |
| CCCNC1CCc2cccc(-c3ccno3)c2C1 (centres unmarked) | log10(Ki) | 3.78 |
| Cc1ccc2[nH]c3c(c2c1)CCNC3C(C)c1cccc2ccccc12 (centres unmarked) | log10(Ki) | 0.75 |
| Cc1ccc2c3c([nH]c2c1Cl)CNCC3 [drawing 177] | log10(Ki) | 1.31 |
| Cc1ccc2c3c([nH]c2c1I)CNCC3 | log10(Ki) | 1.25 |
| CCc1ccc2[nH]c3c(c2c1)CCNC3Cc1ccc(OC)c(OC)c1 (centres unmarked) [drawing 143] | log10(Ki) | 1.37 |

Source of measurements: patent US5688807A
